Kindly state Minimum detectable cellular change, Tubulin polymer intensity for each of the entries shown.
System: HeLa cells
Assay: Multiparameter fluorescence high information content analysis of cellular effects
Type: cell-based
Set-up: unit not given here
Conditions: 24 h treatment

Reported Minimum detectable cellular change, Tubulin polymer intensity of C=CC=CC(C)C1OC(=O)C=CC=CC(C)C(O)CC(O)C=CC(C)C(O)C(C)CC(C)CCC(O)C1C (centres unmarked) [Compound 100] : >5000 (4)

Reported Minimum detectable cellular change, Tubulin polymer intensity of C=CC=CC(C)C1OC(=O)C=CC=CC(C)C(O)CC(O)C=CC(C)C(O)C(C)CCCCC(O)C1C (centres unmarked) [Compound 79] : 26.9 ± 2.9 (4)

Reported Minimum detectable cellular change, Tubulin polymer intensity of C=CC=CC(C)C1OC(=O)C=CC=CC(C)C(O)CC(O)C=CC(C)C(O)C(C)CC(C)CCC(O)C1C (centres unmarked) [Compound 109] : >5000 (4)

Reported Minimum detectable cellular change, Tubulin polymer intensity of CC(=O)O[C@H]1C(=O)[C@@]2(C)[C@H]([C@H](OC(=O)c3ccccc3)[C@]3(O)C[C@H](OC(=O)[C@H](O)[C@@H](NC(=O)c4ccccc4)c4ccccc4)C(C)=C1C3(C)C)[C@]1(OC(C)=O)CO[C@@H]1C[C@@H]2O [paclitaxel, reference compound] : 8.0 ± 2.9 (4)

Reported Minimum detectable cellular change, Tubulin polymer intensity of C=C/C=C\[C@H](C)[C@@H]1OC(=O)/C=C\C=C\[C@@H](C)[C@@H](O)C[C@H](O)/C=C\[C@H](C)[C@H](O)[C@@H](C)C[C@@H](C)CC[C@@H](O)[C@@H]1C [dictyostatin-1, reference compound] : 7.4 ± 2.5 (4)
